Hey, just so you know, these numbers are from patent US20130174289A1.

Target: SLC41A1 (human)
Sequence (chain, as listed by the source limits assumed): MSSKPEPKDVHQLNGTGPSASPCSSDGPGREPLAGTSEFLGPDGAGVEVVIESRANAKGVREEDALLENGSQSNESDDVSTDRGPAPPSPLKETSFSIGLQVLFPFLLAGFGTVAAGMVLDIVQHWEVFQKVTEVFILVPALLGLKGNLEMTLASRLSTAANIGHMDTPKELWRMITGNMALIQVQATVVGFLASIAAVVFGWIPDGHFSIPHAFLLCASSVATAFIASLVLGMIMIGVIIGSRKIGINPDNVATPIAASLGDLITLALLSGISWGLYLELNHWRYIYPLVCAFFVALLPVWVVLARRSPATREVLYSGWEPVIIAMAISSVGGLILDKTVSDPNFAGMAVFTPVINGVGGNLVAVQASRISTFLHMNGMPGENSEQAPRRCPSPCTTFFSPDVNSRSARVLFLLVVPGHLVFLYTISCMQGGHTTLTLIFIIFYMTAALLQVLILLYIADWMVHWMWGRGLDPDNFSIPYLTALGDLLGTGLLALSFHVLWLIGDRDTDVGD
Assay: split-ubiquitin method screen (DUALmembrane SU-YTH) for SLC41A1 complex-forming partners
I'd appreciate it if you could supply occurrence values for the items below.
A number alone suffices; assume clones.

Any idea what its occurrence is? The binder is UPF0414 transmembrane protein C20orf30 (other) MMPSRTNLATGIPSSKVKYSRLSSTDDGYIDLQFKKTPPKIPYKAIALATVLFLIGAFLIIIGSLLLSGYISKGGADRAVPVLIIGILVFLPGFYHLRIAYYASKGYRGYSYDDIPDFDD
3

Any idea what its occurrence is? The binder is Transmembrane protein 147 (other) MTLFHFGNCFALAYFPYFITYKCSGLSEYNAFWKCVQAGVTYLFVQLCKMLFLATFFPTWEGGIYDFIGEFMKASVDVADLIGLNLVMSRNAGKGEYKIMVAALGWATAELIMSRCIPLWVGARGIEFDWKYIQMSIDSNISLVHYIVASAQVWMITRYDLYHTFRPAVLLLMFLSVYKAFVMETFVHLCSLGSWAALLARAVVTGLLALSTLALYVAVVNVHS
2

Any idea what its occurrence is? The binder is ATP synthase subunit a (Cricetulus griseus) (other) MNENLFSSFITPTLMGLPIIILIIMFPPVIMTSSKRLVNNRFHTFQQWLIKLITKQMMAIHSPKGRTWSLMLASLIIFIGSTNLLGLLPHTFTPTTQLSMNLGMAIPPWAGAVILGFRHKMKDSLAHFLPQGTPIPLIPMLVIIETISLFIQPMALAVRLTANITAGHLLMHLIGGATLVLTSISLPTAMITFIILIMLTILEFAVALIQAYVFTLLVSLYLHDNT
1
